Test system: Fibroblast
Assay: Multiplex assay against human fibroblast
Format: toxicity, cell-based
Conditions: 48 h, 10 µM, compound concentration 10 uM, replicate 2
Property measured: Population Mitochondria Different-Phenotype (%)

>  <Compound>
CCCC(CCC)C(=O)O

>  <Target or test system>
Fibroblast

>  <Quantity unit>
%

>  <Assay result>
5

$$$$
>  <Compound>
CN1CCN2c3ncccc3Cc3ccccc3C2C1 (stereo not drawn)

>  <Target or test system>
Fibroblast

>  <Quantity unit>
%

>  <Assay result>
2

$$$$
>  <Compound>
O=C(NCC(=O)N1CC[C@H](N[C@H]2CC[C@@](O)(c3ccc(-c4ncccn4)cn3)CC2)C1)c1cccc(C(F)(F)F)c1

>  <Target or test system>
Fibroblast

>  <Quantity unit>
%

>  <Assay result>
6

$$$$
>  <Compound>
O=C(O)c1cc2ccccc2c(Cc2c(O)c(C(=O)O)cc3ccccc23)c1O

>  <Target or test system>
Fibroblast

>  <Quantity unit>
%

>  <Assay result>
1

$$$$
>  <Compound>
Cc1ccccc1C(=O)Nc1ccc(C(=O)N2CCCC(N(C)C)c3ccccc32)cc1.Cl (stereo not drawn)

>  <Target or test system>
Fibroblast

>  <Quantity unit>
%

>  <Assay result>
14

$$$$
>  <Compound>
CCCN1CCC[C@@H]2Cc3n[nH]cc3C[C@H]21.Cl [QUINPIROLE HYDROCHLORIDE]

>  <Target or test system>
Fibroblast

>  <Quantity unit>
%

>  <Assay result>
4

$$$$
>  <Compound>
CCNC1(C(N)=O)CCN(c2ncnc3c2nc(-c2ccccc2Cl)n3-c2ccc(Cl)cc2)CC1

>  <Target or test system>
Fibroblast

>  <Quantity unit>
%

>  <Assay result>
26

$$$$
>  <Compound>
CSc1ccccc1N1CCN(CCCCCC(=O)NC2CCCc3ccccc32)CC1.Cl (stereo not drawn)

>  <Target or test system>
Fibroblast

>  <Quantity unit>
%

>  <Assay result>
33

$$$$
>  <Compound>
CCOc1c2c(c(OCC)c3ncccc13)CN(c1ccc(CS(=O)(=O)NC(=O)Cc3ccccc3OC)cc1C)C2=O

>  <Target or test system>
Fibroblast

>  <Quantity unit>
%

>  <Assay result>
5

$$$$
>  <Compound>
c1cc(OCCCN2CCCCC2)ccc1CN1CCCCC1

>  <Target or test system>
Fibroblast

>  <Quantity unit>
%

>  <Assay result>
11

$$$$
>  <Compound>
C[C@H](NC(=O)c1c(C(F)F)nn(C)c1Oc1cccc(C(F)(F)F)c1)c1ccc(C(=O)O)cc1

>  <Target or test system>
Fibroblast

>  <Quantity unit>
%

>  <Assay result>
6

$$$$
>  <Compound>
Cc1ccc(/C(=C\CN2CCCC2)c2ccccn2)cc1

>  <Target or test system>
Fibroblast

>  <Quantity unit>
%

>  <Assay result>
9

$$$$
>  <Compound>
N#Cc1c(N)nc(SCc2csc(-c3ccc(Cl)cc3)n2)c(C#N)c1-c1ccc(OCCO)cc1

>  <Target or test system>
Fibroblast

>  <Quantity unit>
%

>  <Assay result>
30

$$$$
>  <Compound>
N[C@@]1(C(=O)O)CO[C@H]2[C@H](C(=O)O)[C@H]21

>  <Target or test system>
Fibroblast

>  <Quantity unit>
%

>  <Assay result>
5

$$$$
>  <Compound>
COc1cc(C(=O)N(CCCc2ccccc2)Cc2ccc(CC(=O)O)cc2)cc(OC)c1C

>  <Target or test system>
Fibroblast

>  <Quantity unit>
%

>  <Assay result>
3

$$$$
>  <Compound>
Cc1ccc(C(C)(O)c2nc3ccccc3s2)c(C)c1 (stereo not drawn)

>  <Target or test system>
Fibroblast

>  <Quantity unit>
%

>  <Assay result>
7

$$$$
>  <Compound>
O=C(O)Cc1ccccc1Nc1c(Cl)cccc1Cl

>  <Target or test system>
Fibroblast

>  <Quantity unit>
%

>  <Assay result>
6

$$$$
>  <Compound>
Cc1nc2ccc(Oc3ccc(F)cc3)cc2c(=O)n1C[C@H]1CCCN(C(C)C)C1.Cl

>  <Target or test system>
Fibroblast

>  <Quantity unit>
%

>  <Assay result>
19

$$$$
